SYSTEM UNDER TEST: 2-heptyl-4(1H)-quinolone synthase PqsD (Pseudomonas aeruginosa)
Sequence (A0A0C7ACN7 whole entry): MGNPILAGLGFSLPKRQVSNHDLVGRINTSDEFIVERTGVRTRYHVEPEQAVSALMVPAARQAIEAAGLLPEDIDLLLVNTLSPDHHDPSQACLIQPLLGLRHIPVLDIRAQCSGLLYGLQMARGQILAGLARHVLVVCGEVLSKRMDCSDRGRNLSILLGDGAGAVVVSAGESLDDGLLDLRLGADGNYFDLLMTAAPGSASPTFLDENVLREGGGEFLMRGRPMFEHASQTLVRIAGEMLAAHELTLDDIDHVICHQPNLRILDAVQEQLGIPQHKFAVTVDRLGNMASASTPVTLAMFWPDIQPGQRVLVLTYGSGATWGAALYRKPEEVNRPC
PROCEDURE DETAILS: Inhibition of Pseudomonas aeruginosa PqsD
MEASURED PROPERTY: IC50 (µM)
Kindly provide the numeric value in µM only, without the unit symbol.

Entry CCCCCCS(=O)(=O)c1nccc(-n2ccnn2)n1 ; IC50 = 1.7

Entry CS(=O)(=O)c1nccc(-n2cnnn2)n1 ; IC50 = 21

----------
PROCEDURE DETAILS: Half life in rat hepatic microsomes at 1 uM in presence of NADPH by UPLC-MS/MS analysis
Assay type: ADME, Microsome
PARTICULARS: liver microsomes
MEASURED PROPERTY: half-life at 1 µM

Entry O=CN1N=C(c2ccccc2)CC1c1cccc(Nc2ccnc3cc(Cl)ccc23)c1 (stereo unspecified) ; half-life at 1 µM = < 30 min

----------
SYSTEM UNDER TEST: Transcriptional regulator MvfR (Pseudomonas aeruginosa PA14, UniProt A0A072ZLE6)
Sequence (A0A072ZLE6 whole entry): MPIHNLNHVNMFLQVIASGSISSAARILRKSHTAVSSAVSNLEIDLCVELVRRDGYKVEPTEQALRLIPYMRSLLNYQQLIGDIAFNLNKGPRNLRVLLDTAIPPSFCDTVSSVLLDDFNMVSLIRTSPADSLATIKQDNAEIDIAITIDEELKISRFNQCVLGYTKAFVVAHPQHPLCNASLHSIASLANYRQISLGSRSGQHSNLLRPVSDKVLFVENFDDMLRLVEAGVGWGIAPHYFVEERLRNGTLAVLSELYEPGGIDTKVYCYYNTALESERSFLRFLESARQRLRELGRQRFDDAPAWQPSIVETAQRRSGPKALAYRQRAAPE
PROCEDURE DETAILS: Antagonist activity at His6 -tagged Pseudomonas aeruginosa PqsR CBD domain expressed in Escherichia coli Rosetta 2 (DE3)
Provide the recorded IC50 for the entries that follow.

Entry CCCCCCCCCc1nc2cc(F)ccc2c(=O)n1N ; IC50 = 3.9 µM

Entry CCCCCCCCCc1nc2cc(F)c(F)cc2c(=O)n1N ; IC50 = 1.2 µM

Entry CCCCCCCCCc1nc2cc(Cl)ccc2c(=O)n1N ; IC50 = 5 µM
